Molecular target: human melanocortin receptor-1 (human, UniProt Q01726 1-317)
Sequence (Q01726 whole entry): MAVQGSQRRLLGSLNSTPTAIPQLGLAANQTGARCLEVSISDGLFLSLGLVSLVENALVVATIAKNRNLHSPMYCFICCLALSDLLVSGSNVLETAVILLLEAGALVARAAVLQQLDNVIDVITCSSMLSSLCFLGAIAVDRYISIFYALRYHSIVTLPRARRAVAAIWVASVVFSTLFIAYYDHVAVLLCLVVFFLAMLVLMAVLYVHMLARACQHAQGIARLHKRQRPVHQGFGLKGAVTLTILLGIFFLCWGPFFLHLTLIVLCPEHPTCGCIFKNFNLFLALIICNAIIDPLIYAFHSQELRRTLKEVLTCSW
Test: cell-based or functional assay
Positions of bridges follow the written chain, without caps; N, C: chain ends. Non-standard residues stand in square brackets, D forms with d. Orn = NCCC[C@H](N)C(=O)O
Lab note: anything with hMC1r Emax at or over 90% counts as MET; the rest go in NOT MET.

[
  {
    "binder": "RXQFRWX (N-terminal Ac; Dab 2 (X); D-Phe 4; hGlu 7 (X); cyclo(Dab 2-hGlu 7); C-terminal NH2, also called Ac-Arg-cyclo(Dab-Gln-D-Phe-Arg-Trp-hGlu)-NH2) [Peptide No. 159]",
    "group_label": "MET"
  },
  {
    "binder": "Ac-REN[dF]RW[Orn]-NH2 (lactam 2-7, also called Ac-Arg-cyclo(Glu-Asn-D-Phe-Arg-Trp-Orn)-NH2) [Peptide No. 161]",
    "group_label": "NOT MET"
  },
  {
    "binder": "Ac-[dR][Orn]Q[dF]RWE-NH2 (lactam 2-7) [Peptide No. 152]",
    "group_label": "NOT MET"
  }
]

Assess whether reported hMC1r Emax for Ac-[dR][Orn]N[dF]RWE-NH2 (lactam 2-7) [Peptide No. 156] sits at 90% or higher.
NOT MET

Taken from patent US10660939.
